Value source: patent US20210403435A1

- System: Digitaria sanguinalis (DIGSA)
- test-name: Post-emergence efficacy, glasshouse, evaluated after 13 days
- Format: in vivo
- protocol-conditions: Digitaria sanguinalis, 312 h; post-emergence application, 500 g/Ha, evaluated after 13 days; read-out: Control of weed species DIGSA (100=total damage to plant; 0=no damage to plant)
Kindly return Y if reported pest or weed control at 500 g/ha is no lower than 60%; return N if it is lower.

- input-smiles: "O=C(O)CC[n+]1ccc(C(=O)Nc2ccon2)cn1"
  qualitative-label: "Y"
- input-smiles: "O=C(NCCO)c1cc[n+](CCS(=O)(=O)[O-])nc1"
  qualitative-label: "Y"
- input-smiles: "CNC(=O)c1cc[n+](CCCS(=O)(=O)[O-])nc1"
  qualitative-label: "Y"
- input-smiles: "O=C(O)CC[n+]1ccc(C(=O)Nc2ccc(F)cc2F)cn1"
  qualitative-label: "N"
- input-smiles: "CC(C)CNC(=O)c1cc[n+](CCC(=O)O)nc1"
  qualitative-label: "Y"
